target: XO (isolated from bovine milk) (Bos taurus, UniProt P80457); test: XO inhibition assay
Sequence (P80457 whole entry): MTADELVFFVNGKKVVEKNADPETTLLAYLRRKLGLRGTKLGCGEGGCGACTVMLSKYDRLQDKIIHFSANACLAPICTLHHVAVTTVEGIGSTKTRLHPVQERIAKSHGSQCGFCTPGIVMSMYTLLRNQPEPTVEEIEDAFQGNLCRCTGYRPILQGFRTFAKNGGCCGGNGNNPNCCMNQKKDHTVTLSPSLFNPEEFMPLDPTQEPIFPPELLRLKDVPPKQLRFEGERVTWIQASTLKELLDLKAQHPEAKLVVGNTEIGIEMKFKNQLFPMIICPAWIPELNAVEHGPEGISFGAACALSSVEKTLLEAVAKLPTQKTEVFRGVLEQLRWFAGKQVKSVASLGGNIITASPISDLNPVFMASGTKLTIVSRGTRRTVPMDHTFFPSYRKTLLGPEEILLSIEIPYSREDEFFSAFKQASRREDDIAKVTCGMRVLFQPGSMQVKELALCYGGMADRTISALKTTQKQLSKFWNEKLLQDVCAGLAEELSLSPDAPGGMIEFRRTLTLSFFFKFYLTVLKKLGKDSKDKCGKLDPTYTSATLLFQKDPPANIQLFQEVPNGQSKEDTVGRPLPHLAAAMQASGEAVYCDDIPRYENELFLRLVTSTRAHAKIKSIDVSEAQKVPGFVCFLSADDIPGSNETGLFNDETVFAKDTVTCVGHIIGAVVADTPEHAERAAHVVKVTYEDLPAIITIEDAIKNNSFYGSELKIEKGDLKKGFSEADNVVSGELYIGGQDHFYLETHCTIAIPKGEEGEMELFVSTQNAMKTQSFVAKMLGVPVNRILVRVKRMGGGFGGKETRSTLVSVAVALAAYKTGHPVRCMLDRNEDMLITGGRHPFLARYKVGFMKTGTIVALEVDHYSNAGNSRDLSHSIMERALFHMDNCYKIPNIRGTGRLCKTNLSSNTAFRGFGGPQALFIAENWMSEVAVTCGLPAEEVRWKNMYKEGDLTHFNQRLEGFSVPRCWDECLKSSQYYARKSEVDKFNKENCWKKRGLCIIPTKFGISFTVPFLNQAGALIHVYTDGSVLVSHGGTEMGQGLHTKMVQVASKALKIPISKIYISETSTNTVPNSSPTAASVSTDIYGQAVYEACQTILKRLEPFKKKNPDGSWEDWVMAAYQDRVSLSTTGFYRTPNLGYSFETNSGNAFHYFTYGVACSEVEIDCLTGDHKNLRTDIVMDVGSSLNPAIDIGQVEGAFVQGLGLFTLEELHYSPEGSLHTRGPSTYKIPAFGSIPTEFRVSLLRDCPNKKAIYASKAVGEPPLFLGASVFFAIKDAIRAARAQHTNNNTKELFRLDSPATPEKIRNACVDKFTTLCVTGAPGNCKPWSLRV
property name: IC50 (µM)
// note: answer is a bare numeric in µM

Lookup: Quote IC50 reported for O=C1/C(=C/c2ccc(O)c(O)c2)Oc2cc(O)cc(O)c21 please.
Found: 7.62

###

target: XO (isolated from bovine milk) (Bos taurus, UniProt P80457); experiment: Fluorescence titrations; format: binding; settings: binding constant K, 298 K
property name: pKd
Convention used: pKd is expressed as -log10 of the molar concentration.

Lookup: Report the value of pKd obtained on XO (isolated from bovine milk) (Bos taurus, UniProt P80457) for O=C1/C(=C/c2ccc(O)c(O)c2)Oc2cc(O)cc(O)c21 .
Found: 4.10

###

molecular target: XO (isolated from bovine milk) (Bos taurus); assay: Enzyme kinetic studies; format: biochemical
property name: pKi
Units for pKi: none; it is -log10 of a concentration expressed in mol/L.

Lookup: Answer with the recorded pKi for the compound listed here: O=C1/C(=C/c2ccc(O)c(O)c2)Oc2cc(O)cc(O)c21
Found: 5.74
